tested on: HELF; assay: MTT cell proliferation assay, HELF; type: cell-based; conditions: read-out: IC50, inhibition of proliferation

Compound: O=C(O)c1ccc(-c2c[nH]c3ncc(-c4ccccc4)cc23)cc1C1CCCC1 [GSK650394]
Tested target: HELF
Units label: µM
IC50: 6.14

---

target: human Aurora B (Homo sapiens, UniProt Q96GD4)
Sequence (Q96GD4 70-344): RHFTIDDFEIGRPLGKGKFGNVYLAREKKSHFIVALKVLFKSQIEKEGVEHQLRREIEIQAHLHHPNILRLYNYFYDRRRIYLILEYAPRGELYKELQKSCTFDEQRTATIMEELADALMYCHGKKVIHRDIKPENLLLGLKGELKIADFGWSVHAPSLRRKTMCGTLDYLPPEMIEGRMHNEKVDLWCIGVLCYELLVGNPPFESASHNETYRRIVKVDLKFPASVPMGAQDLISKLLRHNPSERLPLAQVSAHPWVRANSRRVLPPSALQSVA
Sequence (Q9NQS7 835-904 partner limits assumed): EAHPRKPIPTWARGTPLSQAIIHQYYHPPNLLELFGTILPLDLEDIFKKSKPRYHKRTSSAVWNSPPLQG

Smiles: O=C(O)c1ccc(-c2c[nH]c3ncc(-c4ccccc4)cc23)cc1C1CCCC1
IC50: 5.68 µM
